Target: purine receptors (Cavia porcellus, UniProt P47745)
Construct: Ilea were removed from sacrificed guinea pigs and placed in organ baths; from tissue; host or cells: guinea pig ileum
Sequence (P47745 whole entry): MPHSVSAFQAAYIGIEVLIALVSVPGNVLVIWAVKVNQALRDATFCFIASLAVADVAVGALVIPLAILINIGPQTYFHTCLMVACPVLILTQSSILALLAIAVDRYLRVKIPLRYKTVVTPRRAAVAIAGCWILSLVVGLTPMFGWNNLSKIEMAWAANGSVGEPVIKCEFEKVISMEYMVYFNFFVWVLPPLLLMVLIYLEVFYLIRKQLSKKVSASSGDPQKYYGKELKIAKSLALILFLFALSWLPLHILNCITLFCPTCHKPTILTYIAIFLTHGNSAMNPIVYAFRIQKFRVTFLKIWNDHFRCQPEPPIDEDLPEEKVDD
Test: Purine receptor antagonism in guinea pig ileum twitch test (agonist 2-chloroadenosine, Schild regression)
Settings: vs 2-chloroadenosine; Schild regression; may be considered the pKb; read-out: pA2 Guinea pig ileum (converted)
Procedure: Accordingly, a representative number of compounds of the present invention were tested for their ability to antagonise the purine receptors using the guinea pig ileum test system. Ilea were removed from sacrificed guinea pigs and placed in organ baths containing oxygenated Krebs-Henseleit buffer. […] Concentration response curves to the purine agonist, 2-chloroadenosine, were determined first in the absence and then in the presence of multiple concentrations of the compounds of the invention. […]
Each entry below carries its recorded Kb.
The reply should contain only the number, in µM.

Sample answers from the record:
{"Compound": "CCCCn1c(=O)c2nc(-c3ccc(/C=C/C(=O)O)cc3)[nH]c2n(CCCC)c1=O [Example 14]", "Kb [µM]": 0.0316}
{"Compound": "O=C(O)/C=C/c1ccc(-c2nc3c(=O)n(Cc4ccccc4)c(=O)n(Cc4ccccc4)c3[nH]2)cc1 [Example 15]", "Kb [µM]": 0.0794}
{"Compound": "CC(C)Cn1c(=O)c2nc(-c3ccc(/C=C/C(=O)O)cc3)[nH]c2n(CC(C)C)c1=O [Example 19]", "Kb [µM]": 0.0355}

May I ask what Kb has been recorded for Cn1c(=O)c2nc(-c3ccc(/C=C/C(=O)O)cc3)[nH]c2n(Cc2ccccc2)c1=O [Example 18] ?
0.0794

May I ask what Kb has been recorded for CCCn1c(=O)c2nc(-c3ccc(/C=C/C(=O)O)cc3)[nH]c2n(CCC)c1=O [Example 6] ?
0.02

May I ask what Kb has been recorded for CCCn1c(=O)n(C)c(=O)c2nc(-c3ccc(/C=C/C(=O)O)cc3)[nH]c21 [Example 11] ?
0.1
